system: sAPPβ release in SH-SY5Y cells; test: sAPPβ release assay; assay type: cell-based; conditions: Homo sapiens, SH-SY5Y, 17 h, compounds incubated 17 h, MSD detection
OBSERVATION_TYPE: IC50
Record the result as number plus unit.

Q: Endpoint output: IC50 of CO[C@H]1CC[C@]2(CC1)Cc1ccc(NC(=O)c3ccc(C(F)(F)F)cn3)cc1C21N=C(C)C(N)=N1 (stereo partly drawn) [Example 20k] . Value?
A: 8.6 nM

Q: Endpoint output: IC50 of CCO[C@H]1CC[C@]2(CC1)Cc1ccc(-c3cncc(C(F)(F)F)c3)cc1C21N=C(C)C(N)=N1 (stereo partly drawn) . Value?
A: 24 nM

Q: Endpoint output: IC50 of [2H]C([2H])([2H])O[C@H]1CC[C@]2(CC1)Cc1ccc(-c3cc(Cl)cc(C#N)c3)cc1C21N=C(C)C(N)=N1 (stereo partly drawn) . Value?
A: 0.5 nM

Q: Endpoint output: IC50 of [2H]C([2H])([2H])O[C@H]1CC[C@]2(CC1)Cc1ccc(Br)cc1C21N=C(C)C(N)=N1 (stereo partly drawn) . Value?
A: 47 nM

Q: Endpoint output: IC50 of CC1=NC2(N=C1N)c1cc(Br)ccc1CC21CCC(F)(F)CC1 (stereo not drawn) . Value?
A: 399 nM

Q: Endpoint output: IC50 of CC1=N[C@]2(C[C@H]([C@@H]3CCCOC3)Oc3ccc(-c4cccc(Cl)c4)cc32)N=C1N [Example 48 Isomer 7] . Value?
A: 191 nM

Q: Endpoint output: IC50 of CO[C@H]1CC[C@]2(CC1)Cc1ccc(C#N)cc1C21N=C(C)C(N)=N1 (stereo partly drawn) . Value?
A: 171 nM

Q: Endpoint output: IC50 of COC1CCC2(CC1)Cc1ccc(Br)cc1[C@@]21N=C(C)C(N)=N1 (single isomer, unassigned) [Example 19 Isomer 1] . Value?
A: 18 nM

Q: Endpoint output: IC50 of CC1=NC2(CCOc3ccc(NC(=O)c4ncc(Cl)cc4Cl)cc32)N=C1N (stereo not drawn) [Example 13i] . Value?
A: 160 nM

Q: Endpoint output: IC50 of CC1=N[C@]2(C[C@H]([C@H]3CCCOC3)Oc3ccc(-c4cccc(Cl)c4)cc32)N=C1N [Example 48 Isomer 4] . Value?
A: 689 nM

Q: Endpoint output: IC50 of CC1=NC2(N=C1N)c1cc(-c3cc(F)cc(F)c3)ccc1C[C@]21CC[C@@H](OC(F)F)CC1 (stereo partly drawn) . Value?
A: 28 nM

Q: Endpoint output: IC50 of `CO[C@H]1CC[C@]2(CC1)Cc1ccc(-c3cc(F)cc(F)c3)cc1[C@@]21N=C(C)C(N)=N1` . Value?
A: 4.8 nM

Q: Endpoint output: IC50 of CO[C@H]1CC[C@]2(CC1)Cc1ccc(-c3cc(Br)cc(C#N)c3)cc1C21N=C(C)C(N)=N1 (stereo partly drawn) . Value?
A: 0.56 nM

Q: Endpoint output: IC50 of `CO[C@H]1CC[C@]2(CC1)Cc1ccc(-c3cncc(C(F)(F)F)c3)cc1[C@@]21N=C(C)C(N)=N1` . Value?
A: 0.99 nM

Q: Endpoint output: IC50 of CC#Cc1cncc(-c2ccc3c(c2)C2(CCC3)N=C(C)C(N)=N2)c1 (stereo not drawn) . Value?
A: 21 nM

Q: Endpoint output: IC50 of CC1=NC2(N=C1N)c1cc(-c3cncc(Cl)c3)ccc1CC21CCC(C(F)F)CC1 (stereo not drawn) . Value?
A: 417 nM

Q: Endpoint output: IC50 of CO[C@H]1CC[C@]2(CC1)Cc1ccc(NC(=O)c3ncc(Cl)cc3Cl)cc1C21N=C(C)C(N)=N1 (stereo partly drawn) [Example 20o] . Value?
A: 9.2 nM

Q: Endpoint output: IC50 of CCO[C@H]1CC[C@]2(CC1)Cc1ccc(Br)cc1C21N=C(C)C(N)=N1 (stereo partly drawn) . Value?
A: 148 nM

Q: Endpoint output: IC50 of CO[C@H]1CC[C@]2(CC1)Cc1ccc(C#CC(C)(C)C)cc1C21N=C(C)C(N)=N1 (stereo partly drawn) [Example 20h] . Value?
A: 7.1 nM

Q: Endpoint output: IC50 of `COc1cccc(-c2ccc3c(c2)[C@@]2(N=C(C)C(N)=N2)[C@]2(CC[C@H](OC)CC2)C3)c1F` . Value?
A: 1.7 nM

Q: Endpoint output: IC50 of `COc1cc(-c2ccc3c(c2)[C@@]2(N=C(C)C(N)=N2)[C@]2(CC[C@H](OC)CC2)C3)cc(C#N)c1F` . Value?
A: 0.93 nM

Q: Endpoint output: IC50 of CO[C@H]1CC[C@]2(CC1)Cc1ccc(OCCC(F)(F)F)cc1C21N=C(C)C(N)=N1 (stereo partly drawn) [Example 20u] . Value?
A: 0.63 nM

Q: Endpoint output: IC50 of [2H]C([2H])([2H])O[C@H]1CC[C@]2(CC1)Cc1ccc(-c3cc(F)cc(C#N)c3)cc1C21N=C(C)C(N)=N1 (stereo partly drawn) . Value?
A: 2.8 nM

Q: Endpoint output: IC50 of CCC1=NC2(N=C1N)c1cc(-c3cccc(C#N)c3)ccc1C[C@]21CC[C@@H](OC)CC1 (stereo partly drawn) . Value?
A: 13 nM

Q: Endpoint output: IC50 of CC1=N[C@]2(C[C@@H]([C@H]3CCCOC3)Oc3ccc(-c4cccc(Cl)c4)cc32)N=C1N [Example 48 Isomer 8] . Value?
A: 204 nM

Q: Endpoint output: IC50 of CO[C@H]1CC[C@]2(CC1)Cc1ccc(-c3cc(C)cc(C#N)c3)cc1C21N=C(C)C(N)=N1 (stereo partly drawn) . Value?
A: 2.1 nM

Q: Endpoint output: IC50 of CO[C@H]1CC[C@]2(CC1)Cc1ccc(NC(=O)c3ccc(Cl)cn3)cc1C21N=C(C)C(N)=N1 (stereo partly drawn) [Example 20q] . Value?
A: 3.8 nM

###

For each of the compounds below, state its IC50.
tested on: sAPPβ release in SH-SY5Y cells; assay: sAPPβ release assay; assay type: cell-based; conditions: Homo sapiens, SH-SY5Y, 17 h, compounds incubated 17 h, MSD detection
Please give a number only; it is taken to be in nM.

Q: Endpoint output: IC50 of CO[C@H]1CC[C@]2(CC1)Cc1ccc(-c3cncc(COCC(F)(F)F)c3)cc1C21N=C(C)C(N)=N1 (stereo partly drawn) . Value?
A: 36

Q: Endpoint output: IC50 of CCc1cc(C#N)cc(-c2ccc3c(c2)C2(N=C(C)C(N)=N2)[C@]2(CC[C@H](OC)CC2)C3)c1 (stereo partly drawn) . Value?
A: 3.6

Q: Endpoint output: IC50 of COCc1cccc(-c2ccc3c(c2)C2(N=C(C)C(N)=N2)[C@]2(CC[C@H](OC)CC2)C3)c1 (stereo partly drawn) . Value?
A: 13

Q: Endpoint output: IC50 of CC#Cc1cncc(-c2ccc3c(c2)C2(N=C(C)C(N)=N2)C2(CCC(F)(F)CC2)C3)c1 (stereo not drawn) [Example 28h] . Value?
A: 18

Q: Endpoint output: IC50 of COCc1cc(F)cc(-c2ccc3c(c2)C2(N=C(C)C(N)=N2)[C@]2(CC[C@H](OC)CC2)C3)c1 (stereo partly drawn) . Value?
A: 20

Q: Endpoint output: IC50 of CCO[C@H]1CC[C@]2(CC1)Cc1ccc(-c3cc(F)cc(C#N)c3)cc1C21N=C(C)C(N)=N1 (stereo partly drawn) . Value?
A: 17

Q: Endpoint output: IC50 of CC#Cc1cccc(-c2ccc3c(c2)C2(N=C(C)C(N)=N2)[C@]2(CC[C@H](OC)CC2)C3)c1Cl (stereo partly drawn) . Value?
A: 135

Q: Endpoint output: IC50 of CC1=N[C@]2(C[C@@H]([C@@H]3CCCOC3)Oc3ccc(-c4cccc(Cl)c4)cc32)N=C1N [Example 48 Isomer 1] . Value?
A: 20

Q: Endpoint output: IC50 of CO[C@H]1CC[C@]2(CC1)Cc1ccc(-c3cc(Cl)cnc3C)cc1C21N=C(C)C(N)=N1 (stereo partly drawn) . Value?
A: 8.6

Q: Endpoint output: IC50 of CC#Cc1cncc(-c2ccc3c(c2)C2(N=C(C)C(N)=N2)[C@]2(CC[C@H](OCC)CC2)C3)c1 (stereo partly drawn) . Value?
A: 0.85

Q: Endpoint output: IC50 of CO[C@H]1CC[C@]2(CC1)Cc1ccc(-c3cnc(C)c(Cl)c3)cc1C21N=C(C)C(N)=N1 (stereo partly drawn) . Value?
A: 8.7

Q: Endpoint output: IC50 of `CO[C@H]1CC[C@]2(CC1)Cc1ccc(-c3cnc(C)c(Cl)c3)cc1[C@@]21N=C(C)C(N)=N1` . Value?
A: 3.1

Q: Endpoint output: IC50 of CCC1=NC2(N=C1N)c1cc(-c3cncc(Cl)c3)ccc1C[C@]21CC[C@@H](OC)CC1 (stereo partly drawn) . Value?
A: 3.4

Q: Endpoint output: IC50 of CC1=NC2(CCOc3ccc(NC(=O)c4ccc(Cl)cn4)cc32)N=C1N (stereo not drawn) [Example 13a] . Value?
A: 501

Q: Endpoint output: IC50 of CC1=NC2(CC(C3CCCOC3)Oc3ccc(Br)cc32)N=C1N (single isomer, unassigned) [Example 47 Isomer 2] . Value?
A: 657

Q: Endpoint output: IC50 of CO[C@H]1CC[C@]2(CC1)Cc1ccc(-c3cnc4[nH]cc(C)c4c3)cc1C21N=C(C)C(N)=N1 (stereo partly drawn) . Value?
A: 12

Q: Endpoint output: IC50 of `CO[C@H]1CC[C@]2(CC1)Cc1ccc(-c3ccc(F)cc3F)cc1[C@@]21N=C(C)C(N)=N1` . Value?
A: 14

Q: Endpoint output: IC50 of [2H]C([2H])([2H])O[C@H]1CC[C@]2(CC1)Cc1ccc(-c3cncc(Cl)c3)cc1C21N=C(C)C(N)=N1 (stereo partly drawn) . Value?
A: 0.97

Q: Endpoint output: IC50 of `CO[C@H]1CC[C@]2(CC1)Cc1ccc(-c3cccc(Cl)c3Cl)cc1[C@@]21N=C(C)C(N)=N1` . Value?
A: 34

Q: Endpoint output: IC50 of `[2H]C([2H])([2H])C#Cc1cncc(-c2ccc3c(c2)[C@@]2(N=C(C)C(N)=N2)[C@]2(CC[C@H](OC)CC2)C3)c1` . Value?
A: 0.14

Q: Endpoint output: IC50 of CC1=NC2(N=C1N)c1cc(C#CC3CC3)ccc1CC21CCC1 (stereo not drawn) . Value?
A: 219

Q: Endpoint output: IC50 of CC1=NC2(N=C1N)c1cc(-c3cncc(Cl)c3)ccc1CC21CCC1 (stereo not drawn) . Value?
A: 118

Q: Endpoint output: IC50 of CC1=NC2(N=C1N)c1cc(-c3cncc(Cl)c3)ccc1CC21CCC(F)(F)CC1 (stereo not drawn) [Example 28c] . Value?
A: 109

Q: Endpoint output: IC50 of CC#Cc1cncc(-c2ccc3c(c2)C2(N=C(N)C(CC)=N2)[C@]2(CC[C@H](OC)CC2)C3)c1 (stereo partly drawn) . Value?
A: 0.81

Q: Endpoint output: IC50 of CO[C@H]1CC[C@]2(CC1)Cc1ccc(C#CC(C)C)cc1C21N=C(C)C(N)=N1 (stereo partly drawn) . Value?
A: 1.6

Q: Endpoint output: IC50 of CO[C@H]1CC[C@]2(CC1)Cc1ccc(C#CC3CCC3)cc1C21N=C(C)C(N)=N1 (stereo partly drawn) . Value?
A: 2

Q: Endpoint output: IC50 of CO[C@H]1CC[C@]2(CC1)Cc1ccc(OCC3CCC3)cc1C21N=C(C)C(N)=N1 (stereo partly drawn) . Value?
A: 1.4

Q: Endpoint output: IC50 of CO[C@H]1CC[C@]2(CC1)Cc1ccc(-c3ccc4[nH]cc(C)c4c3)cc1C21N=C(C)C(N)=N1 (stereo partly drawn) . Value?
A: 10

Q: Endpoint output: IC50 of `CO[C@H]1CC[C@]2(CC1)Cc1ccc(-c3cc(C#N)cc(C(F)(F)F)c3)cc1[C@@]21N=C(C)C(N)=N1` . Value?
A: 0.8

Q: Endpoint output: IC50 of CC#Cc1cncc(-c2ccc3c(c2)C2(N=C(C)C(N)=N2)C2(CCC2)C3)c1 (stereo not drawn) . Value?
A: 24
